Here, each record is paired with measured AC50 data.
target: Cannabinoid receptor 1 (Homo sapiens, UniProt P21554); note: assay procedure not described here
Sequence (P21554 whole entry): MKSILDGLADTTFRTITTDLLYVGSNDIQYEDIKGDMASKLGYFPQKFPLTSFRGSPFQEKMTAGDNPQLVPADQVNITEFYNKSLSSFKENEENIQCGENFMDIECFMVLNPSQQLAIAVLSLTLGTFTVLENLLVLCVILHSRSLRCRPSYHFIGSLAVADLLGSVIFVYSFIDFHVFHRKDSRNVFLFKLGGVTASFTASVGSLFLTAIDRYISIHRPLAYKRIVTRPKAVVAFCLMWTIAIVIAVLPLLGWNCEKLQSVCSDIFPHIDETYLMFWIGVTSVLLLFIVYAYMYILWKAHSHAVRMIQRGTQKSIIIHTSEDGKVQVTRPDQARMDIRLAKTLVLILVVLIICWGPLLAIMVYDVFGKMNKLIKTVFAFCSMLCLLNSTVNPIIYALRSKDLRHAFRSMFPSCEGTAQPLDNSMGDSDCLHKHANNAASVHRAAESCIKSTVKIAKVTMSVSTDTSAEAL

{"compound": "C[C@]12C=CC(=O)N[C@@H]1CC[C@@H]1[C@@H]2CC[C@]2(C)[C@@H](C(=O)Nc3cc(C(F)(F)F)ccc3C(F)(F)F)CC[C@@H]12 [DUTASTERIDE]", "AC50": "> 10 µM"}
{"compound": "CCC[C@H](NC(=O)[C@@H]1[C@H]2CCC[C@H]2CN1C(=O)[C@@H](NC(=O)[C@@H](NC(=O)c1cnccn1)C1CCCCC1)C(C)(C)C)C(=O)C(=O)NC1CC1", "AC50": "> 10 µM"}
{"compound": "CC(C)COCC(CN(Cc1ccccc1)c1ccccc1)N1CCCC1 (stereo not drawn)", "AC50": "10 µM"}

====

target: Beta-3 adrenergic receptor (Homo sapiens, UniProt P13945); note: assay procedure not described here
Sequence (P13945 whole entry): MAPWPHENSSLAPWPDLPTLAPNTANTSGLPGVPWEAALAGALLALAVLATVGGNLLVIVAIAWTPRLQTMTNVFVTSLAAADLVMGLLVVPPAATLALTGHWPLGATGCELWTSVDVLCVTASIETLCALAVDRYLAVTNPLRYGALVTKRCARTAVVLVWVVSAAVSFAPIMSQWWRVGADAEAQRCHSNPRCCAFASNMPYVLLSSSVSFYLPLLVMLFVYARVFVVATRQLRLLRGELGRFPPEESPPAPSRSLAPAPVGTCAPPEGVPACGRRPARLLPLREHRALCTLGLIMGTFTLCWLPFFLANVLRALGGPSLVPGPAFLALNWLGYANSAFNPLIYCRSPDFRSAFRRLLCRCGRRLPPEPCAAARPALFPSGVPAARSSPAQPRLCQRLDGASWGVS
Here, each record is paired with measured AC50 data.
reported_endpoint: AC50

{"compound": "C[C@@H](Oc1cc(-c2cnn(C3CCNCC3)c2)cnc1N)c1c(Cl)ccc(F)c1Cl [CRIZOTINIB]", "observed_result": "14.2 µM"}
{"compound": "CC12CC3CC(C)(C1)CC(N)(C3)C2 [MEMANTINE]", "observed_result": "20.1 µM"}
{"compound": "CC(CCc1ccc(O)cc1)NCCc1ccc(O)c(O)c1 (stereo not drawn) [DOBUTAMINE]", "observed_result": "> 30 µM"}
{"compound": "C=CC[C@@H]1/C=C(\\C)C[C@H](C)C[C@H](OC)[C@H]2O[C@@](O)(C(=O)C(=O)N3CCCC[C@H]3C(=O)O[C@H](/C(C)=C/[C@@H]3CC[C@@H](O)[C@H](OC)C3)[C@H](C)[C@@H](O)CC1=O)[C@H](C)C[C@@H]2OC [TACROLIMUS ANHYDROUS]", "observed_result": "12.2 µM"}
{"compound": "Cc1onc(-c2ccccc2)c1-c1ccc(S(N)(=O)=O)cc1 [VALDECOXIB]", "observed_result": "> 30 µM"}
{"compound": "CC(C)COCC(CN(Cc1ccccc1)c1ccccc1)N1CCCC1 (stereo not drawn) [BEPRIDIL]", "observed_result": "11.9 µM"}
{"compound": "Cc1cnc(C(=O)NCCc2ccc(S(=O)(=O)NC(=O)NC3CCCCC3)cc2)cn1 [GLIPIZIDE]", "observed_result": "> 30 µM"}
{"compound": "CC(=O)OCC(=O)[C@@]1(O)[C@H](C)C[C@H]2[C@@H]3CCC4=CC(=O)C=C[C@]4(C)[C@@]3(F)[C@@H](O)C[C@@]21C [DEXAMETHASONE ACETATE]", "observed_result": "> 30 µM"}
{"compound": "CN(C)CCc1c[nH]c2ccc(Cn3cncn3)cc12 [RIZATRIPTAN]", "observed_result": "> 30 µM"}
{"compound": "CO[C@H]1/C=C/O[C@@]2(C)Oc3c(C)c(O)c4c(O)c(c(/C=N/N5CCN(C)CC5)c(O)c4c3C2=O)NC(=O)/C(C)=C\\C=C\\[C@H](C)[C@H](O)[C@@H](C)[C@@H](O)[C@@H](C)[C@H](OC(C)=O)[C@@H]1C [RIFAMPIN]", "observed_result": "32.6 µM"}
{"compound": "Nc1ccc(S(=O)(=O)Nc2nccs2)cc1 [SULFATHIAZOLE]", "observed_result": "> 30 µM"}
{"compound": "CCCC(CCC)C(=O)O [VALPROIC ACID]", "observed_result": "> 30 µM"}
{"compound": "[H]/N=C(/N)N/C(=N/[H])NCCc1ccccc1 [PHENFORMIN]", "observed_result": "> 30 µM"}
{"compound": "CC(C)N(CCC(C(N)=O)(c1ccccc1)c1ccccn1)C(C)C (stereo not drawn) [DISOPYRAMIDE]", "observed_result": "8.37 µM"}
{"compound": "C[C@H]1c2cccc(O)c2C(=O)C2=C(O)[C@]3(O)C(=O)C(C(N)=O)=C(O)[C@@H](N(C)C)[C@@H]3[C@@H](O)[C@@H]21 [DOXYCYCLINE]", "observed_result": "> 30 µM"}
{"compound": "CCC(=O)O[C@]1(C(=O)SCF)[C@H](C)C[C@H]2[C@@H]3C[C@H](F)C4=CC(=O)C=C[C@]4(C)[C@@]3(F)[C@@H](O)C[C@@]21C [FLUTICASONE PROPIONATE]", "observed_result": "> 30 µM"}
{"compound": "COc1cc2nc(N3CCN(C(=O)C4CCCO4)CC3)nc(N)c2cc1OC (stereo not drawn) [TERAZOSIN]", "observed_result": "> 30 µM"}
{"compound": "CC(C)Cc1ccc(C(C)C(=O)O)cc1 (stereo not drawn) [IBUPROFEN]", "observed_result": "7.12 µM"}
